Cited source: patent US20090162358A1

# measuredTarget: T1, human β-amyloid 1-40 (human, UniProt P05067 672-711)
# T1 construct: domain: β-amyloid (1-40); Used in solution over captured antibody (Biacore) or coated on ELISA plates; also called human Aβ peptide (1-40); Aβ peptide (1-40)
# T1 sequence (P05067 672-711 limits assumed): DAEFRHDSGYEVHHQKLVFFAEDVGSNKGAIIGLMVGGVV
# assayInfo: SPR Biacore 3000; mAb captured on anti-mouse IgG, Aβ 1-40 at 4-500 nM
quantityName: kon (M⁻¹ s⁻¹)
Give just the numeric value; M⁻¹ s⁻¹ need not be written.

Entry under test: 4D4 mouse monoclonal antibody (antibody, V domains shown, Mouse hybridoma antibody) VH: EVQLQQSGAELVEPGASVKLSCTGSGFNIKVYYVHWLKQLTEQGLEWIGRIDPENGETLYTPKFQGKATLTVDTSSNTAYLQLNSLTSEDTAVYYCVSSGYWGQGTSLTVSS VL: DIVMTQSAFSNPVTLGTSASISCRSSKSLLHRNGITYLYWYLQKPGQSPQLLIYQMSNLASGVPDRFTSSGSGTDFTLKISRVEAEDVGVYYCAQNLELWTFGGGTKLEIK . Its kon was 73200

Entry under test: 5C9 mouse monoclonal antibody (antibody, V domains shown, Mouse hybridoma antibody) VH: EVQLQQSGAEFVRPGASVKLSCTASGFNIKTYYIHWLKQRTDQGLEWIGRIDPEDGETKFGPKFRGKATLTADTSSNTASLQLSSLTSEDTGVYYCVTSGYWGQGTTLSVSS VL: DIVMTQAAFSNPVTLGTSASISCRSSKSLLHSNGITYLYWYLQKPGQSPQLLIYQMSNLASGVPDRFSSSGSGTDFTLRISRVEAEDVGVYYCAQNLELWTFGGGTKLEIK . Its kon was 61100
